Recorded measurements of pKd, one per entry
- target-entity: T1, human IL-8 (human, UniProt P10145 23-99, limits assumed)
- T1 construct: also called hIL-8; hIL8
- T1 sequence (P10145 23-99 limits assumed): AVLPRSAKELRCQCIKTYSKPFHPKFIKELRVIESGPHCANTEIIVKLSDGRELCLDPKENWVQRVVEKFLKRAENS
- protocol-summary: SPR Biacore T200, Protein A/G capture, pH 7.4, 40C;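 also: antibodies captured via Protein A/G, which was amine-coupled to a CM4 sensor chip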
Please express pKd as -log10 of the molar concentration.

Below, each entry is followed by its recorded pKd result.
H1004/L0442 (antibody, human IgG1, kappa, name in Kabat numbering, V domains shown, L442 = L395 + S31E) VH: QVQLVESGGGLVQPGGSLRLSCAASGFTFSDYYLSWVRQAPGKGLEWVGLIRNKDNGYTPEYSASVKGRFTISRDDSKNSLYLTMSDLKTEDTAVYYCARENHRYDVELAYWGQGTLVTVSS VL: DIQMTQSPSSLSASVGDRVTITCRASEIIYEYLAWYQQKPGKAPKLLIYKAKTHADGVPSRFSGSGSGTDFTFTISSLQPEDIATYYCKHHFGFPRTFGQGTKVEIKR = 9.66
H1041/L0442 (antibody, human IgG1, kappa, name in Kabat numbering, V domains shown, L442 = L395 + S31E) VH: QVQLVESGGGLVQPGGSLRLSCAASGFTFSEYYLSWVRQAPGKGLEWVGLIRNKDNGYHPEYSASVKGRFTISRDDSKNSLYLTMSDLKTEDTAVYYCARENHRYDVELAYWGQGTLVTVSS VL: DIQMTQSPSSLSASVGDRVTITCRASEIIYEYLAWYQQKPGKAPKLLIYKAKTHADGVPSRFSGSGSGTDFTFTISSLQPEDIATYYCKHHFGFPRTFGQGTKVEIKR = 9.92

From here, focus on the item given below.
Prompt: What value of measured pKd is listed for H1000/L0442 (antibody, human IgG1, kappa, name in Kabat numbering, V domains shown, L442 = L395 + S31E) VH: QVQLVESGGGLVQPGGSLRLSCAASGFTFSEYYLSWVRQAPGKGLEWVGLIRNKDNHHTPEYSASVKGRFTISRDDSKNSLYLTMSDLKTEDTAVYYCARENHRYDVELAYWGQGTLVTVSS VL: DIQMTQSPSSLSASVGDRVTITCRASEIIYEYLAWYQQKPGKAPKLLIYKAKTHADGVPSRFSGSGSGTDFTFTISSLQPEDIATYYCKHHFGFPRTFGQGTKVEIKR ?
Response: 9.70
